// provenance: the supplement of paper PMC9170038

# Test system: MS2 coat protein
# TEST: apparent KD of MS2 coat protein; higher = weaker reporter binding
# SETUP_CONDITIONS: Eterna round: R107; input ligand: arginine 13.2 mM
Field: apparent KD of MS2 coat protein. Provide a value for each of the sequences that follow.
One number for each entry, in nM.

The examples below pair each entry with its known result.
INSERT INTO results (sequence_content, quantity_kind, unit_text, result) VALUES
  ('ACAUGAGGAUCACCCAUGUCUGCCACUGAUACCAGCGGAAGCCAACGCCCUUGGCAGCAGAACAUGAGGAUCACCCAUGUAGGCA [Same State Theophylline A GF26]', 'apparent KD of MS2 coat protein', 'nM', 52.8),
  ('AUGCAUAGCGGAAGGAGCGCAAUAGAAUGACAUGAGGAUCACCCAUGUAUGUGAUGUGGGUUGCAGGUAGGUCGCCGAGUGGUAU [Exclusion - Arginine B (Freestyle 1)]', 'apparent KD of MS2 coat protein', 'nM', 70.7),
  ('GGAAUAAUGGCGGCCGCCACUAACUCAUAUACAUCAUGUACAUGAGGAUCACCCAUGUAGGUGUAUAGGACCGGGCCAUAAUUCC [39MS split4]', 'apparent KD of MS2 coat protein', 'nM', 20.1),
  ('GGGCAAGAGGGAAGGAGCGUCAGCUGAGUCACAUGAGGAUCACCCAUGUCGCACAUAGUGUGACAGGUAGGUCGCCCUCUACCCU [Esceinan]', 'apparent KD of MS2 coat protein', 'nM', 57.8),
  ('UUCAGCUAGUCGGCCGCCACUACAUGAGGAUCACCCAUGUAUCCUAAACACUGCUUCGGCAGUGGUAGGACCGGGACUAGCUGAG', 'apparent KD of MS2 coat protein', 'nM', 18.1);

Now take the following sequence into account.
State its apparent KD of MS2 coat protein: GACUAUAUGAUAUGUCAGAAAUCCUCGAAACGAGGACCGGUACGGCCGCCACUCGAGUGAUCAACAUGAGGAUCACCCAUGUAAA [Tryp A Ex t1]
36.1
